assay: Pharmacokinetics assay in MiaPaca 2 tumor-bearing mice (plasma, tumor tissue, intestine); assay type: in vivo; conditions: female, mouse, Plasma, oral 6 mg/kg
reported property: Cmax (ng/mL)
Field: numeric (ng/mL). Do not append units.

# input Given the compound Nc1nc(N2CCC3(CC2)Cc2ccccc2[C@H]3N)c(F)nc1Sc1ccnc(N)c1Cl , what is its reported Cmax?
# output 386

====

assay: Pharmacokinetics assay in rats, single intravenous injection; type: in vivo; conditions: rat, iv; male SD rats, i.v. 1 mg/kg, plasma
reported property: C0 (ng/mL)
Respond with the bare value in ng/mL.

# input Which C0 value belongs to Nc1nc(N2CCC3(CC2)Cc2ccccc2[C@H]3N)c(F)nc1Sc1ccnc(N)c1Cl ?
# output 311

====

assay: Pharmacokinetics assay in rats, oral administration; type: in vivo; settings: rat; male SD rats, oral 5 mg/kg, plasma
reported property: half-life
I'd appreciate it if you included the unit after the number.

Nc1nc(N2CCC3(CC2)Cc2ccccc2[C@H]3N)c(F)nc1Sc1ccnc(N)c1Cl ... 10.5 h
Nc1nc(N2CCC3(CC2)Cc2ncsc2[C@H]3N)c(F)nc1Sc1ccnc(N)c1Cl ... 3.55 h
Nc1nc(N2CCC3(CC2)Cc2ncccc2[C@H]3N)c(F)nc1Sc1ccnc(N)c1Cl ... 4.12 h

# input Entry Cc1nc(N2CCC3(CC2)Cc2ncsc2[C@H]3N)c(CO)nc1Sc1ccnc(N)c1Cl has what half-life?
# output 3.69 h

# input Field request: half-life | item: Nc1nccc(Sc2cnc(N3CCC4(CC=C(C5CC5)[C@H]4N)CC3)cn2)c1Cl
# output 6.49 h

====

test: Pharmacokinetics assay in rats, single intravenous injection; assay type: in vivo; conditions: rat, iv; male SD rats, i.v. 1 mg/kg, plasma
reported property: clearance (mL/min/kg)
Unit mL/min/kg implied. Number only.

# input Param item = Nc1nc(N2CCC3(CC2)Cc2ccccc2[C@H]3N)c(F)nc1Sc1ccnc(N)c1Cl ; retrieve measured clearance.
# output 27.2

====

Some compounds, each annotated with its measured AUC(0-inf).
assay: Pharmacokinetics assay in rats, oral administration; format: in vivo; details: rat; male SD rats, oral 5 mg/kg, plasma
Please reply with the bare figure in ng·h/mL and do not write the unit itself.

Nc1nc(N2CCC3(CC2)Cc2ncccc2[C@H]3N)c(F)nc1Sc1ccnc(N)c1Cl ... 6250
Nc1nc(N2CCC3(CC2)Cc2ncsc2[C@H]3N)c(F)nc1Sc1ccnc(N)c1Cl ... 5890
Cc1nc(N2CCC3(CC2)Cc2ncsc2[C@H]3N)c(CO)nc1Sc1ccnc(N)c1Cl ... 1780
Nc1nccc(Sc2cnc(N3CCC4(CC=C(C5CC5)[C@H]4N)CC3)cn2)c1Cl ... 3310

# input Any idea what its AUC(0-inf) is? The compound is Nc1nc(N2CCC3(CC2)Cc2ccccc2[C@H]3N)c(F)nc1Sc1ccnc(N)c1Cl
# output 3840

====

target: hERG potassium channel (Homo sapiens, UniProt Q12809); test: Inhibitory activity on hERG potassium channel (Qpatch, CHO-hERG cells); details: six concentrations up to 40 μM, read-out: hERG (inhibitory effect on hERG current)
Sequence (Q12809 whole entry): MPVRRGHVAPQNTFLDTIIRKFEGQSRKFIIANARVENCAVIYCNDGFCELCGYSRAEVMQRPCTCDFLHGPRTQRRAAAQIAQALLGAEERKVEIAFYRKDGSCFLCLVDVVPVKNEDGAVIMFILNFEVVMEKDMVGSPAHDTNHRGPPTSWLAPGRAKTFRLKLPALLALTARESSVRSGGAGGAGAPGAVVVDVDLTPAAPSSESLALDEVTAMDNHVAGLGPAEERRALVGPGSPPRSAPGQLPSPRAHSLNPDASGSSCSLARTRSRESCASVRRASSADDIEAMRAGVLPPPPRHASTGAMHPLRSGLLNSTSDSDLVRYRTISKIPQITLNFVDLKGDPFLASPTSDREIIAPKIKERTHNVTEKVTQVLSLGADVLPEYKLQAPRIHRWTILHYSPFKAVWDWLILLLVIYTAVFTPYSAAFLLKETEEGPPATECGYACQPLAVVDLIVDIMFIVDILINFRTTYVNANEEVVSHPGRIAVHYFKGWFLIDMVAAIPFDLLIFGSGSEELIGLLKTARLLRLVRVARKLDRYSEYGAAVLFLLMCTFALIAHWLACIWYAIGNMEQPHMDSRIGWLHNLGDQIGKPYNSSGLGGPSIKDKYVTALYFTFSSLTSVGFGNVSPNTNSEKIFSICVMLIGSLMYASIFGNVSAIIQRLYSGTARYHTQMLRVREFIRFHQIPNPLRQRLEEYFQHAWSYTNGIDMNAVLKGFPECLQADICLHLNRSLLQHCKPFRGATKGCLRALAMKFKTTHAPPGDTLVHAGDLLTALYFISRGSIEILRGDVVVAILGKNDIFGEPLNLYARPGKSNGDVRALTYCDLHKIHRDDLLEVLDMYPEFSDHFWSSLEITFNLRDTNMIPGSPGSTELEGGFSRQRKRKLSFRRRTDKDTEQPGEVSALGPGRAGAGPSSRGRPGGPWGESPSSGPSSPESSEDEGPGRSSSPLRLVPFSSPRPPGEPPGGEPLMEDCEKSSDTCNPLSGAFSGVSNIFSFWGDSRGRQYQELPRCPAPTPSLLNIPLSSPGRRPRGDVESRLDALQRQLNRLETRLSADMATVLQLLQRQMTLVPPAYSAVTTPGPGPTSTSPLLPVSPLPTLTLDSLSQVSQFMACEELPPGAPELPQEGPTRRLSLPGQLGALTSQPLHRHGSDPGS
As shown below, each of these molecules has a reported pIC50 value.
Scale: negative log10 of molar concentration, which is what pIC50 denotes.

Solved entries (count: 2):
Nc1nc(N2CCC3(CC2)Cc2ccccc2[C@H]3N)c(F)nc1Sc1ccnc(N)c1Cl [Example 179] ... 5.35
Cc1nc(Sc2ccnc(N)c2Cl)c(N)nc1N1CCC2(CC1)Cc1ccccc1[C@H]2N [Example 96] ... 5.28

# input Item under review: Cc1nc(N2CCC3(CC2)Cc2ncsc2[C@H]3N)c(CO)nc1Sc1ccnc(N)c1Cl [Example 171] . Reported pIC50?
# output 4.73

# input Entry Nc1nc(N2CCC3(CC=C(C4CC4)[C@H]3N)CC2)cnc1Sc1ccnc(N)c1Cl [Example 143] has what pIC50?
# output 5.21

# input I have this molecule here, Nc1nc(N2CCC3(CC2)Cc2ncsc2[C@H]3N)c(F)nc1Sc1ccnc(N)c1Cl [Example 181] , and I need its recorded pIC50.
# output 4.66

# input Fill in: pIC50 of Nc1nccc(Sc2cnc(N3CCC4(CC=C(C5CC5)[C@H]4N)CC3)cn2)c1Cl [Example 144] is ___
# output 5.63
